Target: Drosophila OR49b (Drosophila melanogaster)
Construct: expressed in transfected cells
Sequence (Q9V6H2 whole entry): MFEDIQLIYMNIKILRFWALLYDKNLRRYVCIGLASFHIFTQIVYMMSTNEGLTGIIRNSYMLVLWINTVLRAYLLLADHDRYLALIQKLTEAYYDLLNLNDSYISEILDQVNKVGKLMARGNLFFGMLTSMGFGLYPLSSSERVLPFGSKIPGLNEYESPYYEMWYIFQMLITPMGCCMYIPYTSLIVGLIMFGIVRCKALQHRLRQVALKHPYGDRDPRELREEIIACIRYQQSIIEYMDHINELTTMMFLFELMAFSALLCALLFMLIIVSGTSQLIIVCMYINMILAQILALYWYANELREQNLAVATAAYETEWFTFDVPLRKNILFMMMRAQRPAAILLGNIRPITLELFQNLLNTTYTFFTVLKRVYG
Sequence (Q9VNB5 whole entry partner): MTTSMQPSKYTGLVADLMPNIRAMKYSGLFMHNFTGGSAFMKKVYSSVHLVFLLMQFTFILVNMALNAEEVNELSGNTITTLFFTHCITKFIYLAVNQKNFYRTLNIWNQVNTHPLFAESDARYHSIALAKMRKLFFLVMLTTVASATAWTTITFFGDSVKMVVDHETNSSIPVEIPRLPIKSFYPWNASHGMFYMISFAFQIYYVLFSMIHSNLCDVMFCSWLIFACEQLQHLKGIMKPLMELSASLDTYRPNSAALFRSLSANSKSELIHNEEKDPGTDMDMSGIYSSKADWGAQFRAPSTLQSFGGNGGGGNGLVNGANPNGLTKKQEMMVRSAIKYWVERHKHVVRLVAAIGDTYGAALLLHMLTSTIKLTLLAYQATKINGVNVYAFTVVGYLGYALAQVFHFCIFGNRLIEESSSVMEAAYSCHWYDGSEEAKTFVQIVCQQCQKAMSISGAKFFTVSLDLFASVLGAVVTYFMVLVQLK
Assay: cell-based
Conditions: HEK293; 100 μM VOC; 50 μM VUAA1 = 1; read-out: OR49b Average response (VUAA1-normalized)
# activation at 100 µM values compiled below
Please respond with the number in % and leave the unit unwritten.

[[record]]
compound = "Cc1ccccc1C"
recorded_value = 64

[[record]]
compound = "CC(=O)OCCC(C)C [isopentyl acetate]"
recorded_value = 15

[[record]]
compound = "O=Cc1ccccc1"
recorded_value = 23

[[record]]
compound = "CC(=O)c1ccccc1"
recorded_value = 13

[[record]]
compound = "COC(=O)c1ccccc1O [methyl salicylate]"
recorded_value = 12

[[record]]
compound = "Cc1ccc(C)c(C)c1"
recorded_value = 20


From here, focus on the item given below.
Prompt: Give reported activation at 100 µM value for Cc1ccccc1
Completion: 44

// data source = paper PMC10709440
